Molecular target: PSMA (Homo sapiens)
Sequence (Q04609 whole entry): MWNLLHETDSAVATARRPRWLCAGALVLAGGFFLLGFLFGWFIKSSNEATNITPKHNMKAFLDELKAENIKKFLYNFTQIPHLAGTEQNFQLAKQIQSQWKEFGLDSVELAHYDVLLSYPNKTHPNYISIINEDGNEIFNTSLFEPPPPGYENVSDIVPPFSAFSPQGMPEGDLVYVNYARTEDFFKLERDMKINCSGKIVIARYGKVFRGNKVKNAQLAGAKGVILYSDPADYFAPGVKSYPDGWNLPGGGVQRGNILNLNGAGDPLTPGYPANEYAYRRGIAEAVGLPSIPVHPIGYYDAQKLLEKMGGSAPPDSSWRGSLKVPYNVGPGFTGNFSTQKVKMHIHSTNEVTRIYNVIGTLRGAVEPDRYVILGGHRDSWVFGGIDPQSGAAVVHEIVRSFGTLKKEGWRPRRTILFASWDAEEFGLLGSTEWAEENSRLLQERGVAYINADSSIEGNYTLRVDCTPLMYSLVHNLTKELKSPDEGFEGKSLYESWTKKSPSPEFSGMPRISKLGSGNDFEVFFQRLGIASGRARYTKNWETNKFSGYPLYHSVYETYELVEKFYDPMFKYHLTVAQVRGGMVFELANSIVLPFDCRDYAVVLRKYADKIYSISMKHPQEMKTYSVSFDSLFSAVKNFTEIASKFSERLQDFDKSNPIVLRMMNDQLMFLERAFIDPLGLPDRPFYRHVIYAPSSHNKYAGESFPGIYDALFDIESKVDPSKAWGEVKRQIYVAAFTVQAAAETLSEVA
Test: Competitive binding assay in LNCaP cells with [177Lu]Lu-PSMA-617 as radioligand
Settings: LNCaP cells, radioligand [177Lu]Lu-PSMA-617, 2 h at r.t.; read-out: IC50 (half maximum competitive inhibitory concentration)
Listing of entries alongside the reported pIC50.
Just the number, please; pIC50 means minus log10 of the concentration in mol/L.

1. O=C(O)CC[C@H](NC(=O)N[C@@H](CCCCNC(=O)[C@H](Cc1ccc2ccccc2c1)NC(=O)[C@H]1CC[C@H](CNC(=O)CCCCn2ccnc2CN2CCN(Cc3nccn3CCCCC(=O)NC[C@H]3CC[C@H](C(=O)N[C@@H](Cc4ccc5ccccc5c4)C(=O)NCCCC[C@H](NC(=O)N[C@@H](CCC(=O)O)C(=O)O)C(=O)O)CC3)CCN(Cc3nccn3CCCCC(=O)NC[C@H]3CC[C@H](C(=O)N[C@@H](Cc4ccc5ccccc5c4)C(=O)NCCCC[C@H](NC(=O)N[C@@H](CCC(=O)O)C(=O)O)C(=O)O)CC3)CC2)CC1)C(=O)O)C(=O)O [^nat/68Ga-9, metal not drawn]	8.32
2. O=C(O)CC[C@H](NC(=O)N[C@@H](CCCCNC(=O)CCCCCNC(=O)CCCCn1ccnc1CN1CCN(Cc2nccn2CCCCC(=O)NCCCCCC(=O)NCCCC[C@H](NC(=O)N[C@@H](CCC(=O)O)C(=O)O)C(=O)O)CCN(Cc2nccn2CCCCC(=O)NCCCCCC(=O)NCCCC[C@H](NC(=O)N[C@@H](CCC(=O)O)C(=O)O)C(=O)O)CC1)C(=O)O)C(=O)O [Compound 8]	7.19
3. O=C(O)CC[C@H](NC(=O)N[C@@H](CCCCNC(=O)CCCCn1ccnc1CN1CCN(Cc2nccn2CCCCC(=O)NCCCC[C@H](NC(=O)N[C@@H](CCC(=O)O)C(=O)O)C(=O)O)CCN(Cc2nccn2CCCCC(=O)NCCCC[C@H](NC(=O)N[C@@H](CCC(=O)O)C(=O)O)C(=O)O)CC1)C(=O)O)C(=O)O [^nat/68Ga-7, metal not drawn]	6.35
4. O=C(O)CC[C@H](NC(=O)N[C@@H](CCCCNC(=O)CCCCn1ccnc1CN1CCN(Cc2nccn2CCCCC(=O)NCCCC[C@H](NC(=O)N[C@@H](CCC(=O)O)C(=O)O)C(=O)O)CCN(Cc2nccn2CCCCC(=O)NCCCC[C@H](NC(=O)N[C@@H](CCC(=O)O)C(=O)O)C(=O)O)CC1)C(=O)O)C(=O)O [Compound 7]	6.58
5. O=C(O)CCc1ccc(O)c(CN(CCN(CC(=O)O)Cc2cc(CCC(=O)NCCCCCC(=O)NCCCC[C@H](NC(=O)N[C@@H](CCC(=O)O)C(=O)O)C(=O)O)ccc2O)CC(=O)O)c1 [PSMA-11, Glu-CO-Lys-Ahx-HBED-CC, reference compound]	7.73

The measured pIC50 associated with O=C(O)CC[C@H](NC(=O)N[C@@H](CCCCNC(=O)CCCCCNC(=O)CCCCn1ccnc1CN1CCN(Cc2nccn2CCCCC(=O)NCCCCCC(=O)NCCCC[C@H](NC(=O)N[C@@H](CCC(=O)O)C(=O)O)C(=O)O)CCN(Cc2nccn2CCCCC(=O)NCCCCCC(=O)NCCCC[C@H](NC(=O)N[C@@H](CCC(=O)O)C(=O)O)C(=O)O)CC1)C(=O)O)C(=O)O [^nat/68Ga-8, metal not drawn] reads 7.05

The measured pIC50 associated with O=C(O)CC[C@H](NC(=O)N[C@@H](CCCCNC(=O)[C@H](Cc1ccc2ccccc2c1)NC(=O)[C@H]1CC[C@H](CNC(=O)CCCCn2ccnc2CN2CCN(Cc3nccn3CCCCC(=O)NC[C@H]3CC[C@H](C(=O)N[C@@H](Cc4ccc5ccccc5c4)C(=O)NCCCC[C@H](NC(=O)N[C@@H](CCC(=O)O)C(=O)O)C(=O)O)CC3)CCN(Cc3nccn3CCCCC(=O)NC[C@H]3CC[C@H](C(=O)N[C@@H](Cc4ccc5ccccc5c4)C(=O)NCCCC[C@H](NC(=O)N[C@@H](CCC(=O)O)C(=O)O)C(=O)O)CC3)CC2)CC1)C(=O)O)C(=O)O [Compound 9] reads 8.23
